Test Target: NA transporter (Rattus norvegicus, UniProt Q9WTR4)
Construct: synaptosomes from rat brain regions were freshly isolated; from tissue; host or cells: P2 synaptosome fraction from hypothalamus of male rat brain
Sequence (Q9WTR4 1-597): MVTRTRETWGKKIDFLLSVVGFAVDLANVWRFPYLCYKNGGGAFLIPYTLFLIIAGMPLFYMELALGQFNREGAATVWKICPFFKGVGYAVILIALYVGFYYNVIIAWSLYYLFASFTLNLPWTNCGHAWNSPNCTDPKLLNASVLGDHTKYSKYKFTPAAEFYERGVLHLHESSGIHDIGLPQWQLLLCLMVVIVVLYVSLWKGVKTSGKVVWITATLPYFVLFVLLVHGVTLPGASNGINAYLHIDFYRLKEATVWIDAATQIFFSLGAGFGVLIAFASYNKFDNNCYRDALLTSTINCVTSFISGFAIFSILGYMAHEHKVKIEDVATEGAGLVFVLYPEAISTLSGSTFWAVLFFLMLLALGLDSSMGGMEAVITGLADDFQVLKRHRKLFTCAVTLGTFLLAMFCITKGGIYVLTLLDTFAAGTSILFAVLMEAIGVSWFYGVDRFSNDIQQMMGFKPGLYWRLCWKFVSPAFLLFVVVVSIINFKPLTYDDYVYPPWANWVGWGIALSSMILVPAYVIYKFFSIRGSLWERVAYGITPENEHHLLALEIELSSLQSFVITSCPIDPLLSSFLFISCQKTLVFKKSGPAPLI
Protocol: Noradrenalin uptake inhibition (NA-uptake) in synaptosomes
Assay type: biochemical
Run Parameters: rat hypothalamus synaptosomes
Quantity: NA-uptake, 10 μM, % inhibition (%)

[[record]]
compound = "O=C(C1=NOC2(CCN(S(=O)(=O)c3cccc(C(F)(F)F)c3)CC2)C1)N1CCC(Cc2ccccc2)CC1"
result_units = "%"
value_reported = 49

[[record]]
compound = "COC(=O)C(Cc1ccc(Cl)cc1)NC(=O)C1=NOC2(CCN(S(=O)(=O)c3ccc(OC)cc3)CC2)C1 (stereo not shown)"
result_units = "%"
value_reported = 43

[[record]]
compound = "O=C(NCc1cccs1)C1=NOC2(CCN(C(=O)c3ccc(Br)cc3)CC2)C1"
result_units = "%"
value_reported = 61

[[record]]
compound = "Cc1ccc(S(=O)(=O)N2CCC3(CC2)CC(C(=O)NCCc2ccc(Cl)c(Cl)c2)=NO3)cc1"
result_units = "%"
value_reported = 77

[[record]]
compound = "O=C(NC1CCCC1)C1=NOC2(CCN(C(=O)c3ccccc3COC(=O)c3ccccc3)CC2)C1"
result_units = "%"
value_reported = 49

[[record]]
compound = "O=C(C1=NOC2(CCN(S(=O)(=O)c3cccs3)CC2)C1)N1CCN(C2CCCCCC2)CC1"
result_units = "%"
value_reported = 59

[[record]]
compound = "O=C(C1=NOC2(CCN(S(=O)(=O)c3cccs3)CC2)C1)N1CCN(CCCc2ccccc2)CC1"
result_units = "%"
value_reported = 70


====

Catalogue of molecules with associated NA-uptake, 10 μM, % inhibition
Test Target: NA transporter (Rattus norvegicus, UniProt Q9WTR4)
Construct: synaptosomes from rat brain regions were freshly isolated; from tissue; host or cells: P2 synaptosome fraction from hypothalamus of male rat brain
Protocol: Noradrenalin uptake inhibition (NA-uptake) in synaptosomes
Assay type: biochemical
Run Parameters: rat hypothalamus synaptosomes
Quantity: NA-uptake, 10 μM, % inhibition (%)

[[record]]
molecule = "O=C(C1=NOC2(CCN(S(=O)(=O)c3cc(Cl)ccc3Cl)CC2)C1)N1CCN(Cc2ccccc2)CC1"
quantity = "NA-uptake, 10 μM, % inhibition"
value_reported = 51

[[record]]
molecule = "O=C(C1=NOC2(CCN(S(=O)(=O)c3ccc(OC(F)(F)F)cc3)CC2)C1)N1CCN(CCCc2ccccc2)CC1"
quantity = "NA-uptake, 10 μM, % inhibition"
value_reported = 52

[[record]]
molecule = "O=C(NC1CCCC1OCc1ccccc1)C1=NOC2(CCN(S(=O)(=O)c3ccc(F)cc3)CC2)C1 (stereo not drawn)"
quantity = "NA-uptake, 10 μM, % inhibition"
value_reported = 78

[[record]]
molecule = "O=C(OCc1ccccc1)N1CCN(C(=O)C2=NOC3(CCN(S(=O)(=O)c4ccc(F)cc4)CC3)C2)CC1"
quantity = "NA-uptake, 10 μM, % inhibition"
value_reported = 47

[[record]]
molecule = "Cc1ccc(S(=O)(=O)N2CCC3(CC2)CC(C(=O)N2CCN(c4ccc(C)cc4C)CC2)=NO3)cc1"
quantity = "NA-uptake, 10 μM, % inhibition"
value_reported = 42

[[record]]
molecule = "COc1cccc(CN2CCC(NC(=O)C3=NOC4(CCN(S(=O)(=O)c5cc(Cl)ccc5Cl)CC4)C3)C2)c1 (stereo not drawn)"
quantity = "NA-uptake, 10 μM, % inhibition"
value_reported = 61

[[record]]
molecule = "O=C(C1=NOC2(CCN(S(=O)(=O)Cc3ccccc3)CC2)C1)N1CCN(CCCc2ccccc2)CC1"
quantity = "NA-uptake, 10 μM, % inhibition"
value_reported = 56

[[record]]
molecule = "O=C(NCCc1cccc(C(F)(F)F)c1)C1=NOC2(CCN(S(=O)(=O)c3ccc(F)cc3)CC2)C1"
quantity = "NA-uptake, 10 μM, % inhibition"
value_reported = 40

[[record]]
molecule = "Cc1ccc(S(=O)(=O)N2CCC3(CC2)CC(C(=O)N2CCN(C(C)c4ccccc4)CC2)=NO3)cc1 (stereo not drawn)"
quantity = "NA-uptake, 10 μM, % inhibition"
value_reported = 43

